Target: Mu-type opioid receptor (Homo sapiens, UniProt P35372)
Sequence (P35372 whole entry): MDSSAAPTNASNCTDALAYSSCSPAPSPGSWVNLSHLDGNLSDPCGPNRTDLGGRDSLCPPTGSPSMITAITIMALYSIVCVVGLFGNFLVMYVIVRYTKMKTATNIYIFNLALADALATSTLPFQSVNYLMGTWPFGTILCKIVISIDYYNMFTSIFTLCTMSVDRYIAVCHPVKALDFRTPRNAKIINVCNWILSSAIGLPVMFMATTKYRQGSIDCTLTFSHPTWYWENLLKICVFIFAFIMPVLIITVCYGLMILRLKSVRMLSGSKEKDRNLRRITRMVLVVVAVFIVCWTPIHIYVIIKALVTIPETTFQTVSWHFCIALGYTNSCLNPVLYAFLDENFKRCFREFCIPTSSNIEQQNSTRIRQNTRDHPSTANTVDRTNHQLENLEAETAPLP
Test: MOR agonists by imaging, SAR follow-up, image-based (AID 2352)
measurement.label: pEC50
// field semantics: pEC50 = negative decimal log of concentration (mol/L)

Lookup: pEC50 / Mu-type opioid receptor (Homo sapiens, UniProt P35372) / CCC(N=Nc1ccnc2cc(Cl)ccc12)c1ccc(O)cc1 (configuration not stated)
4.60
